// values below are reported IC50
# system_tested: T1, human MAdCAM (on CHO cells) (human, UniProt Q13477)
# T1 chain: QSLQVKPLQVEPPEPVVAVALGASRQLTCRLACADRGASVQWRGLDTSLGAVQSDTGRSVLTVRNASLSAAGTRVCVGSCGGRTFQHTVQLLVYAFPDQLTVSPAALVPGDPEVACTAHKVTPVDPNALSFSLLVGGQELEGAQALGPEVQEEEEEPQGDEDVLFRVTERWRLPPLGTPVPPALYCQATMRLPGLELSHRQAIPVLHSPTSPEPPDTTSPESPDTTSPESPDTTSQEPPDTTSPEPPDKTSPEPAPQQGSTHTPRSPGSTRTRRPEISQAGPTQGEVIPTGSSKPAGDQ
# protocol_description: competition, JY cell adhesion to CHO
Expressed in mg/L, but write only the number.

6.77.1 (antibody, V domains shown) VH: EVQLVESGGGLVKPGGSLRLSCAASGFTFSSYSMNWVRQAPGKGLEWVSSISSSSSYIYYADSVKGRFTISRDNAKNSLYLQMNSLRAEDTAVYYCARDGYSSGWSYYYYYGMDVWGQGTTVTVSS VL: DIVMTQTPLSLSVTPGQPASISCNSSQSLLLSDGKTYLNWYLQKPGQPPQLLIYEVSNRFSGVPDRFSGSGSGTDFTLKISRVEAEDVGVYSCMQSIQLMCSFGQGTKLEIKR = 0.52
7.26.4 (antibody, V domains shown) VH: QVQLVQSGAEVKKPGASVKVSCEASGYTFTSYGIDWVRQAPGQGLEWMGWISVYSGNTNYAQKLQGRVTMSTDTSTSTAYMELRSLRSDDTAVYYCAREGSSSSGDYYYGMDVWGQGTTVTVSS VL: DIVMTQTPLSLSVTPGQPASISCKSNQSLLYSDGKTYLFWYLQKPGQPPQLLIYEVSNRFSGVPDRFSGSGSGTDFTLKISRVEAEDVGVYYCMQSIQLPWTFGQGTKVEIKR = 0.574
6.73.2 (antibody, V domains shown) VH: EVQLLESGGDLVQPGGSLRLSCAASGFTFRSYAMNWVRQAPGKGLEWVSVISGRGGTTYYADSVKGRFTISRDNSKNTLYLQMNSLRAEDAAVYYCAKIAVAGEGLYYYYGMDVWGQGTTVTVSS VL: MDMRVPAQLLGLLLLWLRGARCDIQMTQSPSSLSASVGDRVTFTCRASQNITNYLNWYQQKPGKAPKLLIYAASSLPRGVPSRFRGSGSGTDFTLTISSLQPEDFATYYCQQSYSNPPECGFGQGTTLDIKR = 0.369
6.14.2 (antibody, V domains shown) VH: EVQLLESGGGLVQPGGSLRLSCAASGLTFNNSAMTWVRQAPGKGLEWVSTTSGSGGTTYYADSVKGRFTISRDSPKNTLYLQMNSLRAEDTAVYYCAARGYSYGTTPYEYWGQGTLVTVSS VL: MDMRVPAQLLGLLLLWLRGARCDIQMTQSPSSLSASVGDRVTITCRASRSISSYLNWYQQKPGKAPKVLIFFVSSLQSGVPSRFSGSGSGTDFTLTISSLQPEDFATYYCQQNYIPPITFGQGTRLEIRR = 0.291

For the binder shown here, 6.34.2 (antibody, V domains shown) VH: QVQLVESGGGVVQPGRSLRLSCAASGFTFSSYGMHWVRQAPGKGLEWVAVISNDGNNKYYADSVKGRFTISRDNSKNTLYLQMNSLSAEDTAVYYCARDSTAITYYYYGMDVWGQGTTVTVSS VL: MDMRVPAQLLGLLLLWLRGARCDIQMTQSPSSLSASVGDRVTITCRASQNISSYLNWFQQKPGKAPKLLIYAASGLKRGVPSRFSGSGSGTDFTLTIRTLQPDDFATYSCHQSYSLPFTFGPGTKVDIKR , give the reported IC50. 0.285
